Attribution: ChEMBL document CHEMBL1932980

Listed next: entries and their corresponding inhibition.
- assay-system: Adenosine receptor A1 (Homo sapiens) (UniProt P30542)
- procedure-summary: Displacement of [3H]DPCPX from recombinant human A1 adenosine receptor expressed in CHO cells at 10 uM after 120 mins by scintillation counting
- Type: cell-based
Please reply with the bare figure in % and do not write the unit itself.

Task item: Which measured inhibition value corresponds to Nc1scc(CN2CCN(c3ccc(Cl)cc3F)CC2)c1C(=O)c1ccc(Cl)cc1 ?
Reply: 0

Task item: Try this molecule next: Nc1scc(CN2CCN(c3cccc(F)c3F)CC2)c1C(=O)c1ccc(Cl)cc1
Reply: 0

* * *

- assay-system: Adenosine receptor A1 (Homo sapiens) (UniProt P30542)
- Sequence (whole entry): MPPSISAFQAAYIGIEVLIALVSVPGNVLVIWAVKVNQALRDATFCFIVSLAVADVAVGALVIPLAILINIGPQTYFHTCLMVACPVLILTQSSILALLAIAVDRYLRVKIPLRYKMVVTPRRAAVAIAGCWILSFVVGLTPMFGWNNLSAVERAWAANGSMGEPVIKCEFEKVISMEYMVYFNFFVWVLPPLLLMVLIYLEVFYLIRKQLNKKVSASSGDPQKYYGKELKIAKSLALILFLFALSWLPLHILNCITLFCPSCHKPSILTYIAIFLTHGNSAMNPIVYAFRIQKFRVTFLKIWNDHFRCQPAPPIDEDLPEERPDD
- procedure-summary: Binding affinity to recombinant human A1 adenosine receptor allosteric site expressed in CHO cells assessed as potentiation of CCPA-induced [3H]DPCPX displacement at 10 uM after 90 mins relative to control
- Type: cell-based
molecules and their reported fold change (FC)
Number, no unit, nothing else.

Worked set:
> print(dat)
                               smiles.input  quantitative.readout
1  Nc1scc(CN2CCN(c3cccc4ccccc34)CC2)c1C(=O)c1ccc(Cl)cc1                   1.3
2  Nc1scc(CN2CCN(CC(=O)c3ccc(Cl)cc3)CC2)c1C(=O)c1ccc(Cl)cc1                   1.4
3  Nc1scc(CN2CCN(c3ccccc3F)CC2)c1C(=O)c1ccc(Cl)cc1                   1.4
4  Nc1scc(CN2CCN(c3ccc(F)cc3Cl)CC2)c1C(=O)c1ccc(Cl)cc1                   4.2
5  Nc1scc(CN2CCN(C3CCCCCC3)CC2)c1C(=O)c1ccc(Cl)cc1                   1.2
6  COc1ccc(N2CCN(Cc3csc(N)c3C(=O)c3ccc(Cl)cc3)CC2)cc1                   2.8
7  Nc1scc(CN2CCN(c3cc(Cl)ccc3Cl)CC2)c1C(=O)c1ccc(Cl)cc1                   2.8
8  Nc1scc(CN2CCN(c3ccc(C(F)(F)F)cc3)CC2)c1C(=O)c1cccc(C(F)(F)F)c1                   3.4

Would you kindly look at the next entry?
Task item: Provide value of fold change (FC) for this record tested with Adenosine receptor A1 (Homo sapiens) (UniProt P30542): Nc1scc(CN2CCN(c3ccc(Cl)c(C(F)(F)F)c3)CC2)c1C(=O)c1ccc(Cl)cc1
Reply: 4.5
